# Assay: Oral dose-escalation abuse liability study (pharmacokinetics) in adults with stimulant abuse history
# Measurement context: human, in vivo, po
Measured attribute: half-life

Task: Provide half-life value for the following molecule: CC(Cc1ccccc1)NC(=O)C(N)CCCCN [L-lysine-d-amphetamine]
Output: 26.4 to 45.6 min

* * *

# Assay: Pharmacokinetics in male beagle dogs after oral or 30-min intravenous administration, 1 mg/kg (LC/MS/MS)
# Type: in vivo
# Measurement context: male, beagle, dog, plasma, iv, 1 mg/kg, 30 min iv, 1 mg/kg d-amphetamine base, mean of 3 dogs, read-out: CL of L-lysine-d-amphetamine (converted)
Measured attribute: clearance (mL/min/kg)
Answers are plain numbers, in mL/min/kg.

Task: Provide clearance value for the following compound: CC(Cc1ccccc1)NC(=O)C(N)CCCCN (stereo not shown)
Output: 34.8

* * *

# Assay: Clinical pharmacokinetics, 25 and 75 mg, compared to Adderall XR and Dexedrine Spansule
# Measurement context: human, in vivo, po, 75 mg, L-lysine-d-amphetamine intact conjugate concentration, oral 75 mg L-lysine-d-amphetamine, 8 h, mean
Measured attribute: concentration at 8 h (ng/mL)
Answers are plain numbers, in ng/mL.

Task: Provide concentration at 8 h value for the following compound: CC(Cc1ccccc1)NC(=O)C(N)CCCCN [L-lysine-d-amphetamine]
Output: 0

* * *

# Assay: Pharmacokinetics in male beagle dogs after oral or 30-min intravenous administration, 1 mg/kg (LC/MS/MS)
# Format: in vivo
# Measurement context: male, beagle, dog, plasma, iv, 1 mg/kg, 30 min iv, 1 mg/kg d-amphetamine base, individual dogs, read-out: Cmax of L-lysine-d-amphetamine
Measured attribute: Cmax (ng/mL)
Give bare numbers, in ng/mL.

Task: Provide Cmax value for the following compound: CC(Cc1ccccc1)NC(=O)C(N)CCCCN (stereo not shown)
Output: 1470

* * *

# Assay: Clinical steady-state pharmacokinetics, 70 mg capsules once daily for 7 days, healthy adults, fasting
# Measurement context: human, in vivo, 70 mg, AUC0-24 of intact L-lysine-d-amphetamine, steady state, 70 mg once daily for 7 days, healthy adults, fasting, mean n = 11
Measured attribute: AUC(0-t) (ng·h/mL)
Answers are plain numbers, in ng·h/mL.

Task: Provide AUC(0-t) value for the following molecule: CC(Cc1ccccc1)NC(=O)C(N)CCCCN [L-lysine-d-amphetamine]
Output: 60.7

* * *

# Assay: Clinical pharmacokinetics, 25 and 75 mg, compared to Adderall XR and Dexedrine Spansule
# Measurement context: human, in vivo, po, 75 mg, L-lysine-d-amphetamine intact conjugate concentration, oral 75 mg L-lysine-d-amphetamine, 24 h, mean
Measured attribute: concentration at 24 h

Task: Provide concentration at 24 h value for the following molecule: CC(Cc1ccccc1)NC(=O)C(N)CCCCN [L-lysine-d-amphetamine]
Output: 0 ng/mL

* * *

# Assay: Clinical pharmacokinetics, 25 and 75 mg, compared to Adderall XR and Dexedrine Spansule
# Measurement context: human, in vivo, po, 25 mg, L-lysine-d-amphetamine intact conjugate concentration, oral 25 mg L-lysine-d-amphetamine, 0.5 h, mean
Measured attribute: concentration at 0.5 h

Task: Provide concentration at 0.5 h value for the following molecule: CC(Cc1ccccc1)NC(=O)C(N)CCCCN (stereo not shown)
Output: 5.1 ng/mL

* * *

# Assay: Clinical pharmacokinetics, 25 and 75 mg, compared to Adderall XR and Dexedrine Spansule
# Measurement context: human, in vivo, po, 75 mg, L-lysine-d-amphetamine intact conjugate Tmax, oral 75 mg L-lysine-d-amphetamine, mean
Measured attribute: Tmax (h)
Numbers only, in h.

Task: Provide Tmax value for the following molecule: CC(Cc1ccccc1)NC(=O)C(N)CCCCN [L-lysine-d-amphetamine]
Output: 1.05

* * *

# Assay: Intranasal bioavailability of peptide amphetamine conjugates (HCl salts, ELISA)
# Measurement context: Intranasal, rats
Rule: MET for Percent Cmax (relative to Amphetamine) not less than 30%, NOT MET for anything less.

[
  {
    "Compound": "[2H]N[C@H](C(=O)NC(C)Cc1ccccc1)[C@@H](C)CC (stereo partly drawn)",
    "Group label": "MET"
  }
]

Task: Hello, I need to know if CC(Cc1ccccc1)NC(=O)C1CCCN1C(=O)C1CCCN1 (stereo not drawn) has measured Percent Cmax (relative to Amphetamine) not below 30%. Thanks!
Output: MET

Task: Hello, I need to know if [2H]OC(=O)CC[C@H](NC(=O)[C@H](CCC(=O)O)NC(=O)[C@@H](N)CCC(=O)O)C(=O)NC(C)Cc1ccccc1 (stereo partly drawn) has measured Percent Cmax (relative to Amphetamine) not below 30%. Thanks!
Output: NOT MET

Task: Hello, I need to know if [2H]OC(=O)CC[C@H](NC(=O)[C@@H](N)CC(C)C)C(=O)NC(C)Cc1ccccc1 (stereo partly drawn) has measured Percent Cmax (relative to Amphetamine) not below 30%. Thanks!
Output: NOT MET

Task: Hello, I need to know if CC(Cc1ccccc1)NC(=O)C(O)C(O)C(O)C(O)CO (stereo not drawn) [Gulonate-Amp] has measured Percent Cmax (relative to Amphetamine) not below 30%. Thanks!
Output: NOT MET

Task: Hello, I need to know if [2H]N(C(=O)[C@H](CCC(=O)O)NC(=O)[C@@H](N)CCC(=O)O)[C@@H](Cc1ccccc1)C(=O)NC(C)Cc1ccccc1 (stereo partly drawn) has measured Percent Cmax (relative to Amphetamine) not below 30%. Thanks!
Output: NOT MET

Task: Hello, I need to know if [2H]N[C@@H](Cc1ccc(O)cc1)C(=O)NC(C)Cc1ccccc1 (stereo partly drawn) has measured Percent Cmax (relative to Amphetamine) not below 30%. Thanks!
Output: NOT MET

Task: Hello, I need to know if CC(Cc1ccccc1)NC(=O)CN (stereo not drawn) has measured Percent Cmax (relative to Amphetamine) not below 30%. Thanks!
Output: MET

* * *

# Assay: Pharmacokinetics in male beagle dogs after oral or 30-min intravenous administration, 1 mg/kg (LC/MS/MS)
# Assay type: in vivo
# Measurement context: male, beagle, dog, plasma, iv, 1 mg/kg, 30 min iv, 1 mg/kg d-amphetamine base, individual dogs, read-out: t1/2 of L-lysine-d-amphetamine (converted)
Measured attribute: half-life (min)
Numbers only, in min.

Task: Provide half-life value for the following compound: CC(Cc1ccccc1)NC(=O)C(N)CCCCN [L-lysine-d-amphetamine]
Output: 43.2

* * *

# Assay: Clinical pharmacokinetics, 25 and 75 mg, compared to Adderall XR and Dexedrine Spansule
# Measurement context: human, in vivo, po, 25 mg, L-lysine-d-amphetamine intact conjugate T1/2, human, oral 25 mg L-lysine-d-amphetamine, mean
Measured attribute: half-life (min)
Numbers only, in min.

Task: Provide half-life value for the following compound: CC(Cc1ccccc1)NC(=O)C(N)CCCCN (stereo not shown)
Output: 25.1

* * *

# Assay: Clinical pharmacokinetics, 25 and 75 mg, compared to Adderall XR and Dexedrine Spansule
# Measurement context: human, in vivo, po, 75 mg, L-lysine-d-amphetamine intact conjugate concentration, oral 75 mg L-lysine-d-amphetamine, 12 h, individual subjects
Measured attribute: concentration at 12 h (ng/mL)
Give bare numbers, in ng/mL.

Task: Provide concentration at 12 h value for the following molecule: CC(Cc1ccccc1)NC(=O)C(N)CCCCN [L-lysine-d-amphetamine]
Output: 0

* * *

# Assay: Intranasal bioavailability of peptide amphetamine conjugates (HCl salts, ELISA)
# Measurement context: Intranasal, rats
Measured attribute: Percent AUC (bioavailability relative to Amphetamine) (%)
Answers are plain numbers, in %.

[
  {
    "Molecule": "[2H]OC(=O)CC[C@H](NC(=O)[C@@H](N)CC(C)C)C(=O)NC(C)Cc1ccccc1 (stereo partly drawn)",
    "Unit name": "%",
    "Assay value": 6
  }
]

# map each molecule to its Percent AUC (bioavailability relative to Amphetamine)
1. [2H]N(C(=O)[C@H](CCC(=O)O)NC(=O)[C@@H](N)CCC(=O)O)[C@@H](Cc1ccccc1)C(=O)NC(C)Cc1ccccc1 (stereo partly drawn)
2. [2H]OC(=O)CC[C@H](NC(=O)[C@H](CCC(=O)O)NC(=O)[C@@H](N)CCC(=O)O)C(=O)NC(C)Cc1ccccc1 (stereo partly drawn)
3. [2H]N[C@@H](Cc1ccc(O)cc1)C(=O)NC(C)Cc1ccccc1 (stereo partly drawn)
4. [2H]N1CCC[C@H]1C(=O)NC(C)Cc1ccccc1 (stereo partly drawn)

Output:
[39, 10, 21, 2]

# map each molecule to its Percent AUC (bioavailability relative to Amphetamine)
1. [2H]N[C@@H](Cc1c[nH]cn1)C(=O)NC(C)Cc1ccccc1 (stereo partly drawn)
2. [2H]N(CC(=O)NC(C)Cc1ccccc1)C(=O)[C@@H](N)CCCCN (stereo partly drawn)
3. [2H]N(CC(=O)NC(C)Cc1ccccc1)C(=O)CN (stereo not drawn)
4. CC(Cc1ccccc1)NC(=O)C1CCCN1C(=O)C1CCCN1 (stereo not drawn)
5. CC(Cc1ccccc1)NC(=O)C(O)C(O)C(O)C(O)CO (stereo not drawn) [Gulonate-Amp]
6. CC(Cc1ccccc1)NC(=O)CN (stereo not drawn)
7. [2H]N[C@H](C(=O)NC(C)Cc1ccccc1)[C@@H](C)CC (stereo partly drawn)

Output:
[22, 13, 88, 47, 0.4, 65, 73]
